Exercise: for every item that follows, state its recorded melting point.
One number for each entry, in °C.

[[record]]
compound = "C(=Cc1ccc2ccc3ccccc3c2c1)c1ccc2ccccc2c1"
reported = 213

[[record]]
compound = "Nc1ccc(Cl)cc1C(F)(F)F"
reported = 9

[[record]]
compound = "Fc1ccc2c(c1)Cc1ccccc1-2"
reported = 98

[[record]]
compound = "COC(=O)c1ccc(C(F)(F)F)cc1"
reported = 14

[[record]]
compound = "COc1c(C(=O)O)csc1Cl"
reported = 140

[[record]]
compound = "COC(=O)c1cc2ccccc2c(O)c1C(=O)OC"
reported = 105

[[record]]
compound = "CC12CCCC1C1CCC3CC(OCc4ccccc4)CCC3(C)C1CC2 (stereo unspecified)"
reported = 148

[[record]]
compound = "CC(=O)/C=C/c1cc(N(C)C)ccc1Cc1ccc(N(C)C)cc1I"
reported = 164

[[record]]
compound = "CC(=O)n1nc(C(F)(F)F)cc1-c1ccccc1"
reported = 77

[[record]]
compound = "Clc1cc(Cl)nc(-c2ccccc2)n1"
reported = 96.9


// for each compound in input: emit melting point
1. CCOC(=O)C=Cc1cccc(C=CC(=O)OCC)c1
2. CCCSP(=S)(OCC)Oc1ccc(SC)cc1 (stereo unspecified)
3. O=C(C=NO)Nc1ccccc1
4. CCC(O)c1cc(C)ccc1O (stereo unspecified)
5. CC(Br)C(Br)CBr (stereo unspecified)

Resp:
[53.5, -15, 175, 143, -19]
